System: HCC-2998 colon
ASSAY PROTOCOL: NCI tumour cell line growth inhibition, 48 h
QUANTITY KIND: TGI

Query: Query TGI on HCC-2998 colon for COc1ccc(/C=C2\CCC(CCN3CCOCC3)C2=O)cc1 (stereo unspecified)
Response: > 100 µM

Query: Query TGI on HCC-2998 colon for CN(C)c1ccc(/C=C(\NC(=O)c2ccccc2)C(=O)Nc2cccc(C(=O)NCCCO)c2)cc1
Response: > 100 µM

Query: Query TGI on HCC-2998 colon for NC(N)=N/N=C/c1c(-c2cccnc2)nc2sc(Cl)cn12
Response: 27.5 µM

Query: Query TGI on HCC-2998 colon for COc1cc(CNc2cnc3ccc(N)cc3n2)cc(OC)c1OC
Response: > 100 µM

Query: Query TGI on HCC-2998 colon for CC(C)c1ccc(/C=C/c2cc(C(=O)NNC(=O)NC3CCCCC3)nc(=S)[nH]2)cc1
Response: > 100 µM

Query: Query TGI on HCC-2998 colon for COc1cccc(C2SCc3nc4ccccc4n32)c1 (stereo unspecified)
Response: > 100 µM

Query: Query TGI on HCC-2998 colon for CC/C=C\C[C@H](O)C/C=C1/C(=O)C=C[C@@H]1C/C=C\CCCCO
Response: 3.38 µM

Query: Query TGI on HCC-2998 colon for CC1=N[C@@](C)(C2CC3C=CC2C3=O)COC1=O (stereo partly specified)
Response: > 100 µM

Query: Query TGI on HCC-2998 colon for CCCCC1(O)CC2CC1C(C)C2(C)C (stereo unspecified)
Response: > 100 µM

Query: Query TGI on HCC-2998 colon for COc1ccc(OC)c(/C=C/c2ccnc3ccccc23)c1
Response: 12.9 µM

Query: Query TGI on HCC-2998 colon for COc1ccc(Cn2cc3c(c2-c2cc(OC)c(OC)c(OC)c2)CCc2c(CO)noc2-3)cc1
Response: 19.2 µM

* * *

Give measured TGI for each item. Keep answers brief.
Tested on: LOX IMVI melanoma
ASSAY PROTOCOL: NCI tumour cell line growth inhibition, 48 h

Query: Recorded TGI of Cc1ccc(C(=O)Oc2ccc(/C=C3\CCC/C(=C\c4ccc(OC(=O)c5ccc(C)cc5)cc4)C3=O)cc2)cc1 , please.
Response: > 100 µM

Query: Recorded TGI of O=C1C(c2ccccc2)=C(c2ccccc2)C(c2ccc(Sc3ccc(C4=C(c5ccccc5)C(=O)C(c5ccccc5)=C4c4ccccc4)cc3)cc2)=C1c1ccccc1 , please.
Response: > 100 µM

Query: Recorded TGI of COC(=O)C(=O)C(/C(=N/N)C(=O)Nc1ccccc1C(N)=O)c1nc2ccc([N+](=O)[O-])cc2[nH]c1=O (configuration not stated) , please.
Response: > 100 µM

Query: Recorded TGI of CN1NC(c2ccccc2)=C(C#N)C(=O)CC1c1ccc(F)cc1 (configuration not stated) , please.
Response: > 100 µM

Query: Recorded TGI of O=[N+]([O-])/C(Cl)=C/C(=C1/Nc2ccccc2O1)[N+](=O)[O-] , please.
Response: 23.1 µM

Query: Recorded TGI of Nc1ncn([C@H]2C[C@H](OP(=O)(O)OC[C@H]3O[C@@H](n4cnc5c(=O)[nH]c(N)nc54)C[C@@H]3O)[C@@H](CO)O2)c(=O)n1 , please.
Response: > 100 µM

Query: Recorded TGI of COC(=O)[C@@H](C)C[C@H](Cc1ccccc1)NC(=O)c1csc([C@@H](C[C@H](C(C)C)N(C)C(=O)[C@@H](NC(=O)[C@H]2CCCN2C)C2CC2)OC(C)=O)n1 , please.
Response: > 25 µM
